System: Escherichia coli TOP10
Test: shrunken log2 fold change of peptide-encoding DNA abundance (4.5 h post-induction vs induction); higher = less antimicrobial activity (less host growth inhibition)
Conditions: time post-induction: 4.5 h; library: site-saturation at positions 5, 18, 19, 20
Experimental Endpoint: shrunken log2 fold change
The answer should be written as a number, with no unit following it.

Example entries begin here.
• RRIRPRPPRLPRPRPRPQVRPRP = -0.13
• RRIRNRPPRLPRPRPRPVREPRP = 0.249
• RRIRIRPPRLPRPRPRPEAVPRP = 0.0843
• RRIRERPPRLPRPRPRPKFSPRP = -0.0396
• RRIRNRPPRLPRPRPRPNGKPRP = -0.16

### Prompt Item: RRIRMRPPRLPRPRPRPEAAPRP Test system: Escherichia coli TOP10 Read-out: shrunken log2 fold change Value: ?
### Response 3.45

### Prompt Checklist item: shrunken log2 fold change tested on Escherichia coli TOP10, entry RRIRMRPPRLPRPRPRPLDTPRP , value?
### Response -0.0606

### Prompt What shrunken log2 fold change appears in the records for this sequence with Escherichia coli TOP10? RRIRKRPPRLPRPRPRPLGVPRP
### Response 0.438

### Prompt GET /values?readout=shrunken log2 fold change&system=Escherichia coli TOP10&item= RRIRMRPPRLPRPRPRPLLAPRP
### Response 2.1

### Prompt Observed shrunken log2 fold change on Escherichia coli TOP10 for RRIRERPPRLPRPRPRPEWMPRP , please.
### Response 0.171

### Prompt Record RRIRWRPPRLPRPRPRPSDGPRP : what is its shrunken log2 fold change with Escherichia coli TOP10?
### Response -0.785

### Prompt Form entry - test system: Escherichia coli TOP10; read-out: shrunken log2 fold change; sequence: RRIRMRPPRLPRPRPRPFWAPRP
### Response 0.509

### Prompt Reported shrunken log2 fold change for Escherichia coli TOP10, given RRIRPRPPRLPRPRPRPYPVPRP ?
### Response -0.247

### Prompt Could you share what shrunken log2 fold change was measured for RRIRDRPPRLPRPRPRPTRWPRP , tested on Escherichia coli TOP10?
### Response 1.38

### Prompt Please state recorded shrunken log2 fold change (tested on Escherichia coli TOP10) of RRIRCRPPRLPRPRPRPEWGPRP
### Response 0.163

### Prompt Lab note: need shrunken log2 fold change for RRIRLRPPRLPRPRPRPEVYPRP on Escherichia coli TOP10, anyone have it?
### Response 0.0314

---

Tested on: Escherichia coli TOP10;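 note: peptides expressed intracellularly from a pBAD plasmid library in pooled LB shake-flask culture, induced with 0.3% L-arabinose, DNA abundance read by NGS, three biological replicates, DESeq2 with apeglm shrinkage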
Experiment: shrunken log2 fold change of peptide-encoding DNA abundance (4.5 h post-induction vs induction); higher = less antimicrobial activity (less host growth inhibition)
Conditions: time post-induction: 4.5 h; library: site-saturation at positions 5, 18, 19, 20
Experimental Endpoint: shrunken log2 fold change
// keep it numeric: no unit symbol after the value

Use these answered entries as a reference point.
- RRIRQRPPRLPRPRPRPICQPRP: -0.153
- RRIRIRPPRLPRPRPRPYKQPRP: -0.101
- RRIRCRPPRLPRPRPRPCVHPRP: -0.0561
- RRIRSRPPRLPRPRPRPQDEPRP: -0.101
- RRIRLRPPRLPRPRPRPFQHPRP: -0.175
- RRIRVRPPRLPRPRPRPDVCPRP: 0.0951
- RRIRDRPPRLPRPRPRPRVLPRP: 0.173
- RRIRLRPPRLPRPRPRPCEYPRP: 0.0103
- RRIRYRPPRLPRPRPRPQDTPRP: -0.547
- RRIRYRPPRLPRPRPRPMWDPRP: 0.0162

Now take the following sequence into account.
### Prompt I would be grateful if you could share the reported shrunken log2 fold change for RRIRWRPPRLPRPRPRPRKYPRP .
### Response 0.0119
